Cited source for all entries: patent US20250339569A1

# Assay name: Extended single-dose toxicity study including safety pharmacology endpoints, i.v. bolus (GLP)
# Format: in vivo, beagle dogs
# Test parameters: beagle, dog, plasma, iv, 400 ug/kg; Male; 400 μg/kg single i.v. bolus; mean n = 3; read-out: C5 min
Property name: level at 5 min
Remember to put the unit after the number in your answer.

Q: Give me measured level at 5 min, please, for this compound: CC(C)C[C@@H]1NC(=O)[C@H](Cc2cccc(NC(=O)CCCS(N)(=O)=O)c2)NC(=O)[C@H](CC(=O)O)NC(=O)[C@H]2CCCN2C(=O)[C@H](CCC(=O)O)NC(=O)[C@@H](NC(=O)[C@H](CCC(N)=O)NC(=O)CN2CCN(C(=O)CN3CCN(CC(=O)O)CCN(CC(=O)O)CCN(CC(=O)O)CC3)CC2)CSCc2cccc(c2)CSC[C@@H](C(N)=O)NC(=O)[C@H](CO)NC(=O)[C@H](Cc2c[nH]c3ccccc23)NC(=O)[C@H]([C@@H](C)O)NC1=O
Ans: 1840 ng/mL

---

# Assay name: Plasma stability assay, mouse plasma
# Test parameters: mouse plasma, 37°C, 24 h
Starred links: 1 amine or outer side, 2 acyl side, 3 side chain; linkers in the order of their positions; H or OH if unused. Positions of bridges follow the written chain, without caps; N, C: chain ends. Non-standard residues stand in square brackets, D forms with d. Residues, ends and D or L forms follow the SMILES beside them. *: point of attachment. DOTA = O=C(O)CN1CCN(CC(=O)O)CCN(CC(=O)*)CCN(CC(=O)O)CC1; mXylylene = c1cc(C[*:1])cc(C[*:2])c1; X2 = O=C(CN1CCC(N[*:1])CC1)[*:2]; X1 = O=C(CN1CCN([*:1])CC1)[*:2]; hSer = N[C@@H](CCO)C(=O)O; Ac6c = NC1(C(=O)O)CCCCC1; Dap = NC[C@H](N)C(=O)O
Property name: % intact compound remaining (incubation time)

Compound | Reading
CC(C)C[C@@H]1NC(=O)[C@H](Cc2c[nH]c3ccccc23)NC(=O)[C@@H]2CCCCNC(=O)CC[C@H](NC1=O)C(=O)N[C@@H](Cc1c[nH]c3ccccc13)C(=O)N[C@@H](CO)C(=O)N[C@H](C(N)=O)CSCc1cccc(c1)CSC[C@H](NC(=O)[C@H](Cc1ccc(O)cc1)NC(=O)CN1CCN(CC(=O)O)CCN(CC(=O)O)CCN(CC(=O)O)CC1)C(=O)N[C@@H](CCC(=O)O)C(=O)N1CCC[C@@H]1C(=O)N2 [3BP-4053] ({DOTA}-YCE[dP]KWLEWSC-NH2; linker 2-11 via mXylylene; lactam 5-8) | 91%
CC(C)C[C@@H]1NC(=O)[C@H](Cc2c[nH]c3ccccc23)NC(=O)[C@H](CC(=O)O)NC(=O)[C@H]2CCCN2C(=O)[C@H](CCC(=O)O)NC(=O)[C@@H]2CSCc3cccc(c3)CSC[C@@H](C(N)=O)NC(=O)[C@H](CNC(=O)C[C@H](NC(=O)[C@@H](NC(=O)CN3CCN(CC(=O)O)CCN(CC(=O)O)CCN(CC(=O)O)CC3)C(C)C)C(=O)N2)NC(=O)[C@H](Cc2c[nH]c3ccccc23)NC(=O)[C@H]([C@@H](C)O)NC1=O [3BP-4264] ({DOTA}-VDCE[dP]DWLTW[Dap]C-NH2; lactam 2-11; linker 3-12 via mXylylene) | >95%
CC(C)C[C@@H]1NC(=O)[C@H](Cc2c[nH]c3ccccc23)NC(=O)[C@H](CC(=O)O)NC(=O)[C@H]2CCCN2C(=O)[C@H](CCC(=O)O)NC(=O)[C@@H](NC(=O)[C@H](Cc2ccc(O)cc2)NC(=O)[C@@H](NC(=O)CN2CCC(NC(=O)CN3CCN(CC(=O)O)CCN(CC(=O)O)CCN(CC(=O)O)CC3)CC2)C(C)C)CSCc2cccc(c2)CSC[C@@H](C(N)=O)NC(=O)[C@H](CO)NC(=O)[C@H](Cc2c[nH]c3ccccc23)NC(=O)[C@H]([C@@H](C)O)NC1=O [3BP-3583] ({DOTA}-[X2]VYCE[dP]DWLTWSC-NH2; linker 4-13 via mXylylene) | 79%

Q: Specify measured % intact compound remaining (incubation time) for CC(C)C[C@@H]1NC(=O)[C@H](Cc2c[nH]c3ccccc23)NC(=O)[C@H](CC(=O)O)NC(=O)[C@H]2CCCN2C(=O)[C@H](CCC(=O)O)NC(=O)[C@@H]2CSCc3cccc(c3)CSC[C@@H](C(N)=O)NC(=O)[C@H](CNC(=O)C[C@H](NC(=O)CN3CCN(CC(=O)O)CCN(CC(=O)O)CCN(CC(=O)O)CC3)C(=O)N2)NC(=O)[C@H](Cc2c[nH]c3ccccc23)NC(=O)[C@H]([C@@H](C)O)NC1=O [3BP-4253] ({DOTA}-DCE[dP]DWLTW[Dap]C-NH2; lactam 1-10; linker 2-11 via mXylylene) .
Ans: >95%

Q: Tell me % intact compound remaining (incubation time) reported for CC(C)C[C@@H]1NC(=O)[C@H](Cc2c[nH]c3ccccc23)NC(=O)[C@H](CC(=O)O)NC(=O)[C@H]2CCCN2C(=O)[C@H](CCC(=O)O)NC(=O)[C@@H]2CSCc3cccc(c3)CSC[C@@H](C(N)=O)NC(=O)[C@H](CNC(=O)C[C@H](NC(=O)CN3CCN(C(=O)CN4CCN(CC(=O)O)CCN(CC(=O)O)CCN(CC(=O)O)CC4)CC3)C(=O)N2)NC(=O)[C@H](Cc2c[nH]c3ccccc23)NC(=O)[C@H]([C@@H](C)O)NC1=O [3BP-4255] ({DOTA}-[X1]DCE[dP]DWLTW[Dap]C-NH2; lactam 2-11; linker 3-12 via mXylylene)
Ans: 81%

Q: Identify the reported % intact compound remaining (incubation time) for the following entry. CC(C)C[C@@H]1NC(=O)[C@H](Cc2c[nH]c3ccccc23)NC(=O)[C@H](CC(=O)O)NC(=O)[C@H]2CCCN2C(=O)[C@H](CCO)NC(=O)[C@@H](NC(=O)[C@H](Cc2ccc(O)cc2)NC(=O)[C@@H](NC(=O)CN2CCC(NC(=O)CN3CCN(CC(=O)O)CCN(CC(=O)O)CCN(CC(=O)O)CC3)CC2)C(C)C)CSCc2cccc(c2)CSC[C@@H](C(N)=O)NC(=O)[C@H](CO)NC(=O)[C@H](Cc2c[nH]c3ccccc23)NC(=O)[C@H]([C@@H](C)O)NC1=O [3BP-4101] ({DOTA}-[X2]VYC[hSer][dP]DWLTWSC-NH2; linker 4-13 via mXylylene)
Ans: 93%

Q: Item CC(C)[C@H](NC(=O)CN1CCC(NC(=O)CN2CCN(CC(=O)O)CCN(CC(=O)O)CCN(CC(=O)O)CC2)CC1)C(=O)N[C@@H](Cc1ccc(O)cc1)C(=O)N[C@H]1CSCc2cccc(c2)CSC[C@@H](C(N)=O)NC(=O)[C@H](CO)NC(=O)[C@H](Cc2c[nH]c3ccccc23)NC(=O)[C@H]([C@@H](C)O)NC(=O)C2(CCCCC2)NC(=O)[C@H](Cc2c[nH]c3ccccc23)NC(=O)[C@H](CC(=O)O)NC(=O)[C@H]2CCCN2C(=O)[C@H](CCC(=O)O)NC1=O [3BP-3584] ({DOTA}-[X2]VYCE[dP]DW[Ac6c]TWSC-NH2; linker 4-13 via mXylylene) : provide % intact compound remaining (incubation time)
Ans: >95%

Q: Retrieve % intact compound remaining (incubation time) measured for CC(C)C[C@@H]1NC(=O)[C@H](Cc2c[nH]c3ccccc23)NC(=O)[C@@H]2CCCCNC(=O)CC[C@H](NC1=O)C(=O)N[C@@H](Cc1c[nH]c3ccccc13)C(=O)N[C@@H](CO)C(=O)N[C@H](C(N)=O)CSCc1cccc(c1)CSC[C@H](NC(=O)[C@H](Cc1ccc(O)cc1)NC(=O)CN1CCN(CC(=O)O)CCN(CC(=O)O)CCN(CC(=O)O)CC1)C(=O)N[C@@H](CCC(=O)O)C(=O)N1CCC[C@@H]1C(=O)N2 [3BP-3934] ({DOTA}-YCE[dP]KWLEWSC-NH2; linker 2-11 via mXylylene; lactam 5-8) and print it.
Ans: >95%
